- TARGET UNDER TEST: T1, human CD40 full-length (human, UniProt P25942 21-277)
- T1 construct: Also used for CD40 of Daudi cells, of CD40-expressing HEK293 cells and of the BPS CD40/NFkB HEK293 reporter cells where the row says so; also called CD4001012; CHOK1SV/CD40
- T1 sequence (P25942 21-277): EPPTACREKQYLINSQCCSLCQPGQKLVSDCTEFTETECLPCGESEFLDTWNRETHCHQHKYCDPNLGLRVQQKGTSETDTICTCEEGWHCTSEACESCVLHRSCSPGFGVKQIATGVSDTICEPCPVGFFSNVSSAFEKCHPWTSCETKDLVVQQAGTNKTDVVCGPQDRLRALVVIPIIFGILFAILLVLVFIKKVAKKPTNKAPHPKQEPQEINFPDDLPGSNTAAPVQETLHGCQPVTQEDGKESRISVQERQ
- ASSAY PROCEDURE: flow cytometry, CHOK1SV/human CD40 cells
PROPERTY MEASURED: binding result

BINDER | ENDPOINT RESULT
CD4001197 (Fc fusion, humanized 1D5 variant; not shown: wildtype human IgG1 Fc and its linker to the scFv) scFv: DIQMTQSPSSVSASVGDRVTITCRSSQSLLFSVNQKNYLAWYQQKPGKAPKLLIYWASTRESGVPDRFSGSGSGTDFTLTISSLQPEDFATYYCQHYYSYPWTFGQGTKVEIKGGGGSGGGGSGGGGSGGGGSQVQLVQSGAEVKKPGSSVKVSCKASGYTFSTSWISWVRQAPGQGLEWIGGILPGSGSTNYNEKFKGKATFTADESTSTAYMELSSLRSEDTAVYYCARGDDGSYVRWYFDHWGQGTLVTVSS | binds
CD4001181 (Fc fusion, humanized 1D5 variant; not shown: wild-type human IgG1 Fc and the Fc-to-scFv linker) scFv: DIQMTQSPSSVSASVGDRVTITCRASQSLLFSVNQKNYLAWYQQKPGKAPKLLIYWASTRESGVPDRFSGSGSGTDFTLTISSLQPEDFATYYCQHYYSYPWTFGQGTKVEIKGGGGSGGGGSGGGGSGGGGSQVQLVQSGAEVKKPGSSVKVSCKATGYTFSTSWIEWIRQAPGQGLEWIGSILPGSGSTNYNEKFKGKATFTADTSTSTAYMELSSLRSEDTAVYYCARGDDGSYVRWYFDHWGQGTLVTVSS | binds
